Procedure text: ATG_RORE_CIS: Attagene CIS-FACTORIAL HepG2 Assay for human RAR-related Orphan Receptor Element (RORE) (AID 2282959)
Assay setup: HepG2 Attagene cis-factorial RORE reporter, mRNA; actives raise or lower the signal
Activity calls are given as the source filed them. The calls were made as follows: active = hit-call score of the fitted dose curve at least 0.9, where 1 is the maximum; inactive = score below 0.9.
Just give me one of these, please: 1 for active, 0 for inactive

Request: Assay outcome for `COC(=O)c1cccnc1` : what was it?
Response: 0

Request: Assay outcome for `O=C(Nc1ccc2c(O)c(N=Nc3ccc(N=Nc4ccc(S(=O)(=O)O)cc4)cc3)c(S(=O)(=O)O)cc2c1)c1ccccc1` : what was it?
Response: 0

Request: Assay outcome for `O=c1c(O)c(-c2ccc(O)cc2)oc2cc(O)cc(O)c12` : what was it?
Response: 0

Request: Assay outcome for CCCCCCCC(=O)OCC(O)CO (stereo not drawn) : what was it?
Response: 0

Request: Assay outcome for `CSc1c(Cl)c(Cl)c(Cl)c(Cl)c1Cl` : what was it?
Response: 0

Request: Assay outcome for CCCCC(CC)C(=O)OC(C)C (stereo not drawn) : what was it?
Response: 0

Request: Assay outcome for `CCCCCCC(C)(C)S` : what was it?
Response: 0

Request: Assay outcome for `OC[C@H]1O[C@@H]2O[C@H]3[C@H](O)[C@@H](O)[C@@H](O[C@H]4[C@H](O)[C@@H](O)[C@@H](O[C@H]5[C@H](O)[C@@H](O)[C@@H](O[C@H]6[C@H](O)[C@@H](O)[C@@H](O[C@H]7[C@H](O)[C@@H](O)[C@@H](O[C@H]8[C@H](O)[C@@H](O)[C@@H](O[C@H]9[C@H](O)[C@@H](O)[C@@H](O[C@H]1[C@H](O)[C@H]2O)O[C@@H]9CO)O[C@@H]8CO)O[C@@H]7CO)O[C@@H]6CO)O[C@@H]5CO)O[C@@H]4CO)O[C@@H]3CO` : what was it?
Response: 0

Request: Assay outcome for `CC1(C)COCN1` : what was it?
Response: 0

Request: Assay outcome for `CCc1cc(Cc2cc(CC)cc(C(C)(C)C)c2O)c(O)c(C(C)(C)C)c1` : what was it?
Response: 1

Request: Assay outcome for `O=C(O)CCCCCCCCC(=O)O` : what was it?
Response: 0

Request: Assay outcome for `COc1cc(C(C)C)ccc1C` : what was it?
Response: 0

Request: Assay outcome for CCCCCCCCCCCCCC(=O)OCC(O)CO (stereo not drawn) : what was it?
Response: 0

Request: Assay outcome for `C=CCCCCCCCCCC` : what was it?
Response: 0

Request: Assay outcome for CC(=O)O[C@@H]1CC2CCC1(C)C2(C)C (stereo partly drawn) : what was it?
Response: 0

Request: Assay outcome for `CC1(C)CCC[C@]2(C)[C@H]3CCO[C@]3(C)CC[C@@H]12` : what was it?
Response: 1

Request: Assay outcome for Cc1c(OCC(F)(F)F)ccnc1CS(=O)c1nc2ccccc2[nH]1 (stereo not drawn) : what was it?
Response: 1

Request: Assay outcome for `COCCOC(=O)c1ccccc1C(=O)OCCOC` : what was it?
Response: 0

Request: Assay outcome for `O=C(O)CCCCCCCCCCCC(=O)O` : what was it?
Response: 0

Request: Assay outcome for `Cc1cc(S(=O)(=O)O)ccc1N=Nc1c(O)ccc2ccccc12` : what was it?
Response: 1

Request: Assay outcome for `CCCCOC(=O)CCCCCCCC(=O)OCCCC` : what was it?
Response: 0

Request: Assay outcome for `c1ccc(Oc2ccccc2)cc1` : what was it?
Response: 0

Request: Assay outcome for `C1CCCCC1` : what was it?
Response: 0

Hey, just so you know, these numbers are from PubChem BioAssay (EPA / NIEHS).
